Target: human GLP-1 receptor (human, UniProt P43220 24-463)
Sequence (P43220 24-463): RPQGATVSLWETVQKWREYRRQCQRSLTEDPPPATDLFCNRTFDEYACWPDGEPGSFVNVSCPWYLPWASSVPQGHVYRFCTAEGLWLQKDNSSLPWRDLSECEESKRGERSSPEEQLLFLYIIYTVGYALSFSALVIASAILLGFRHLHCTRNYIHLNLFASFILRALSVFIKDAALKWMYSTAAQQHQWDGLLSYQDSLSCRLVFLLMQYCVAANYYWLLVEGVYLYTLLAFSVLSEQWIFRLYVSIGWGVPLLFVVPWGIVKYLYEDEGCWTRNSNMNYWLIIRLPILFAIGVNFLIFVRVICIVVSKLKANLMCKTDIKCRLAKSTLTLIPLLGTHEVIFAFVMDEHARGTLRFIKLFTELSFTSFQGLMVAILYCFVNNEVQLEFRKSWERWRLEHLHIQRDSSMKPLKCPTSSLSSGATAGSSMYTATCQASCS
Test: cell-based or functional assay
Starred links: 1 amine or outer side, 2 acyl side, 3 side chain; linkers in the order of their positions; H or OH if unused. Non-standard residues stand in square brackets, D forms with d. No end group written: not given here. *: point of attachment. AMCB = 2-amino-5-(4-chloro-2-methylphenyl)pentanoic acid, Cc1cc(Cl)ccc1CCC[C@H](N[*:1])C(=O)[*:2]; 2CF3‑APPA = 2-amino-5-(2-(trifluoromethyl)phenyl)pentanoic acid; Bip(2'-Et-4'-OMe) = CCc1cc(OC)ccc1-c1ccc(C[C@H](N)C(=O)O)cc1; Leu(5,5,5,5',5',5'-F6) = N[C@@H](CC(C(F)(F)F)C(F)(F)F)C(=O)O; 2F‑APPA = 2-amino-5-(2-fluorophenyl)pentanoic acid; αMePhe(2-F) = C[C@](N)(Cc1ccccc1F)C(=O)O; hhPhe = N[C@@H](CCCc1ccccc1)C(=O)O; aThr = C[C@H](O)[C@H](N)C(=O)O; CNB = not defined here; Aib = CC(C)(N)C(=O)O; Moc = COC(=O)*
test.readout: cAMP release, % activity, 1 nM (%)

[[record]]
binder = "H[Aib][CNB]G[aThr][αMePhe(2-F)][aThr]SD[Bip(2'-Et-4'-OMe)][hhPhe] (reading uncertain; also: thioamide bond between residues 10 and 11) [Seq. ID. No. 166: H-Aib-(CNB)-G-T(allo)-(α-Me-2F-Phe)-T(allo)-SD-Bip(OMe)-(C═S)-(APPA)]"
quantity_unit = "%"
recorded_value = 96

[[record]]
binder = "H[Aib][CNB]G[aThr][αMePhe(2-F)][aThr]SD[Bip(2'-Et-4'-OMe)][hhPhe] (reading uncertain; also: thioamide bonds between residues 9-10 and 10-11) [Seq. ID. No. 178: H-Aib-(CNB)-G-T(allo)-(α-Me-2F-Phe)-T(allo)-SD-(C═S)-Bip(OMe)-(C═S)-(APPA)]"
quantity_unit = "%"
recorded_value = 39

[[record]]
binder = "H[Aib][Leu(5,5,5,5',5',5'-F6)]G[aThr][αMePhe(2-F)][aThr]SD[Bip(2'-Et-4'-OMe)][hhPhe] [Seq. ID. No. 228: H-Aib-(Hfl)-G-T(allo)-(α-Me-2F-Phe)-T(allo)-SD-Bip(OMe)-(APPA)]"
quantity_unit = "%"
recorded_value = 99

[[record]]
binder = "H[Aib][Leu(5,5,5,5',5',5'-F6)]GT[αMePhe(2-F)]TSD[Bip(2'-Et-4'-OMe)][AMCB] [Seq. ID. No. 237: H-Aib-(Hfl)-GT-(α-Me-2F-Phe)-TSD-Bip(OMe)-(AMCB)]"
quantity_unit = "%"
recorded_value = 96

[[record]]
binder = "H[Aib][Leu(5,5,5,5',5',5'-F6)]G[aThr][αMePhe(2-F)][aThr]SD[Bip(2'-Et-4'-OMe)][2F‑APPA] (also: thioamide (C═S) bonds Z9-Z10 and Z10-Z11) [Seq. ID. No. 216: H-Aib-(Hfl)-G-T(allo)-(α-Me-2F-Phe)-T(allo)-SD-(C═S)-Bip(OMe)-(C═S)-(2F-APPA)]"
quantity_unit = "%"
recorded_value = 93

[[record]]
binder = "Moc-H[Aib]QG[aThr][αMePhe(2-F)][aThr]SD[Bip(2'-Et-4'-OMe)][2F‑APPA] (also: reduced (CH2) bonds between 9-10 and 10-11) [Seq. ID. No. 200: CH3OCO-H-Aib-QG-T(allo)-(α-Me-2F-Phe)-T(allo)-SD-(CH2)-Bip(OMe)-(CH2)-(2F-APPA)]"
quantity_unit = "%"
recorded_value = 55


[A] H[Aib][CNB]GTFTSD[Bip(2'-Et-4'-OMe)][hhPhe] (reading uncertain) [Seq. ID. No. 29: H-Aib-(CNB)-GTFTSD-Bip(OMe)-(APPA)]
[B] H[Aib][CNB]GTFTSD[Bip(2'-Et-4'-OMe)][2CF3‑APPA] (reading uncertain) [Seq. ID. No. 79: H-Aib-(CNB)-GTFTSD-Bip(OMe)-(2CF3-APPA)]
[C] Ac-H[Aib][CNB]GT[αMePhe(2-F)]TSD[Bip(2'-Et-4'-OMe)][2F‑APPA] (reading uncertain) [Seq. ID. No. 207: CH3CO-H-Aib-(CNB)-GT-(α-Me-2F-Phe)-TSD-Bip(OMe)-(2F-APPA)]
Which order do these items take when sorted by rising cAMP release, % activity, 1 nM? List them. Could you list the labels in the order requested?
C, B, A
(C: 40%, B: 62%, A: 96%)
